# Tested on: MB 5393 (COL), a methicillin-resistant S. aureus strain
# experiment: Determination of minimum and synergistic inhibitory concentration
# Type: cell-based
# condition.label: MRSA COL, presence of imipenem (4 μg/mL), 22 hours
endpoint: SIC

Recorded results for 5 compounds are shown here.
compound	data.value
CCCc1ccc(-c2ccc(C(=O)NCCC(=O)NC(CCCCN)C(=O)N(C)[C@@H]3C(=O)N[C@@H](C)C(=O)N[C@H](C(N)=O)Cc4ccc(O)c(c4)-c4cc3ccc4O)cc2)cc1.O=C(O)C(F)(F)F (stereo partly drawn)	H (H: SIC 0.062-1)
CCCCCCCCCc1ccc(-c2ccc3sc(C(=O)NCCC(=O)N[C@@H](CCCCN)C(=O)N(C)[C@@H]4C(=O)N[C@@H](C)C(=O)N[C@H](C(=O)O)Cc5ccc(O)c(c5)-c5cc4ccc5O)cc3c2)cc1	G (G: SIC <0.0625)
C[C@@H]1NC(=O)[C@@H](N(C)C(=O)[C@H](CCCCN)NC(=O)CCNC(=O)c2ccc(-c3ccc(C4C5CC6CC(C5)CC4C6)cc3)cc2)c2ccc(O)c(c2)-c2cc(ccc2O)C[C@@H](C(=O)O)NC1=O (stereo partly drawn)	G (G: SIC <0.0625)
CC(C)CCCCCCc1ccc(-c2ccc(C(=O)NCCC(=O)N[C@@H](CCCCN)C(=O)N(C)[C@@H]3C(=O)N[C@@H](C)C(=O)N[C@H](C(=O)O)Cc4ccc(O)c(c4)-c4cc3ccc4O)cc2)cc1	G (G: SIC <0.0625)
CCCc1ccc(-c2ccc(C(=O)NCCC(=O)N[C@@H](CCCNC(=N)N)C(=O)N(C)[C@@H]3C(=O)N[C@@H](C)C(=O)N[C@H](C(=O)O)Cc4ccc(O)c(c4)-c4cc3ccc4O)cc2)cc1.O=C(O)C(F)(F)F	H (H: SIC 0.062-1)

Value sought for every listed compound: SIC.
1. CCCc1ccc(-c2ccc(C(=O)NCCC(=O)N[C@H](CCCCN)C(=O)N(C)[C@@H]3C(=O)N[C@@H](C)C(=O)N[C@H](CO)Cc4ccc(O)c(c4)-c4cc3ccc4O)cc2)cc1.O=C(O)C(F)(F)F (mixture of isomers)
2. CCCCCCCCCc1ccc(-c2ccc(C(=O)NCCC(=O)N[C@@H](CCCCN)C(=O)N(C)[C@@H]3C(=O)N[C@@H](C)C(=O)N[C@H](C(=O)O)Cc4ccc(O)c(c4)-c4cc3ccc4O)cc2)cc1.O=C(O)C(F)(F)F
3. CCCc1ccc(-c2ccc(C(=O)NCCC(=O)NC(CCCCN)C(=O)N(C)[C@@H]3C(=O)N[C@@H](C)C(=O)N[C@H](C(=O)O)Cc4ccc(OC)c(c4)-c4cc3ccc4OC)cc2)cc1.O=C(O)C(F)(F)F (stereo partly drawn)

Solution:
1. H (H: SIC 0.062-1)
2. G (G: SIC <0.0625)
3. H (H: SIC 0.062-1)

---

# Tested on: MB 5393 (COL), a methicillin-resistant S. aureus strain
# experiment: Determination of minimum and synergistic inhibitory concentration
# Assay type: cell-based
# condition.label: MRSA COL, presence of imipenem (4 μg/mL), 22 hours
endpoint: SIC

compound	endpoint	data.value
CCCCCCCCCc1ccc(-c2cnc(C(=O)NCCC(=O)N[C@@H](CCCCN)C(=O)N(C)[C@@H]3C(=O)N[C@@H](C)C(=O)N[C@H](C(=O)O)Cc4ccc(O)c(c4)-c4cc3ccc4O)nc2)cc1 [EXAMPLE 63]	SIC	G (G: SIC <0.0625)
CCCCc1ccc(C#Cc2ccc(C(=O)NCCC(=O)NC(CCCCN)C(=O)N(C)[C@@H]3C(=O)N[C@@H](C)C(=O)N[C@H](C(=O)O)Cc4ccc(OC)c(c4)-c4cc3ccc4OC)cc2)cc1 (some centres unmarked) [EXAMPLE 10]	SIC	H (H: SIC 0.062-1)
CCCCCCCCCc1ccc(-c2nc(C(=O)NCCC(=O)N[C@@H](CCCCN)C(=O)N(C)[C@@H]3C(=O)N[C@@H](C)C(=O)N[C@H](C(=O)O)Cc4ccc(O)c(c4)-c4cc3ccc4O)cs2)cc1 [EXAMPLE 41]	SIC	G (G: SIC <0.0625)
COc1ccc2cc1-c1cc(ccc1OC)[C@H](N(C)C(=O)[C@H](CCCCN)NC(=O)CCNC(=O)c1ccc(-c3ccc(CCCCCCCCC(C)(C)O)cc3)cc1)C(=O)N[C@@H](C)C(=O)N[C@H](C(=O)O)C2 [EXAMPLE 56]	SIC	H (H: SIC 0.062-1)

Origin of measurements: patent US20130244929A1
